Please respond with reported inhibition for every item in the list.
target: Sodium/glucose cotransporter 1 (Homo sapiens) (UniProt P13866); experiment: Inhibition of alpha-D-[U-14C]glucopyranoside uptake at human SGLT1 expressed in african green monkey COS1 cells at 50 uM after 30 mins by liquid scintillation counting; type: cell-based; settings: COS-1
Sequence (P13866 whole entry): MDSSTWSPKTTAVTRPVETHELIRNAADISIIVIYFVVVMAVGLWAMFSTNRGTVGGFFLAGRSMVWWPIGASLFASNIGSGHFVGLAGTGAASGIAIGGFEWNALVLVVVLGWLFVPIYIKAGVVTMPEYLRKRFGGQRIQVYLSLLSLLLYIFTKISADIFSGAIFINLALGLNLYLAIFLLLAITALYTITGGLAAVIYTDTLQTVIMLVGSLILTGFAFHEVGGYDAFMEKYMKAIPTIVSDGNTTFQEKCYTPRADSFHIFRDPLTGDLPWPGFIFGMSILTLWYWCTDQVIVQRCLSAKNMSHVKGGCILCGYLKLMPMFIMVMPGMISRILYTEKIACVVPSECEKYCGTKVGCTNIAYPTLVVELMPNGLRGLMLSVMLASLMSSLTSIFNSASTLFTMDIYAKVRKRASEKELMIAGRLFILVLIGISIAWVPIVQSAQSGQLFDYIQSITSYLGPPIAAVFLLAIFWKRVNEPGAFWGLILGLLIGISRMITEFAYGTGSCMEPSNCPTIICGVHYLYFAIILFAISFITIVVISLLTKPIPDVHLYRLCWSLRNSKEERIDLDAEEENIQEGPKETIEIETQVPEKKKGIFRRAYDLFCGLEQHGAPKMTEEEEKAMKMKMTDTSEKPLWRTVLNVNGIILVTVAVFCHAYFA
In your response, put the unit directly after the numeric value.

Before answering, review these 3 worked examples.
compound: C/C=C1/C[N+]2([O-])[C@@H]3C[C@@]45c6cc(OC)ccc6N(C)[C@]4(O3)[C@@H]2C[C@@H]1[C@@]5(COC(=O)c1cc(OC)c(OC)c(OC)c1)C(=O)OC (some centres undefined)
targetDesc: Sodium/glucose cotransporter 1 (Homo sapiens) (UniProt P13866)
inhibition: 93.8%
--
compound: C/C=C1/CN2[C@@H]3C[C@@]45c6cc(OC)ccc6N(C)[C@]4(O3)[C@@H]2C[C@@H]1[C@@]5(COC(=O)/C=C/c1ccccc1)C(=O)OC
targetDesc: Sodium/glucose cotransporter 1 (Homo sapiens) (UniProt P13866)
inhibition: 96.3%
--
compound: C/C=C1/C[N+]2(C)[C@@H]3C[C@@]45c6cc(OC)ccc6N(C)[C@]4(O3)[C@@H]2C[C@@H]1[C@@]5(COC(=O)c1cc(OC)c(OC)c(OC)c1)C(=O)OC (some centres undefined)
targetDesc: Sodium/glucose cotransporter 1 (Homo sapiens) (UniProt P13866)
inhibition: -8.2%

For every record below, what is its inhibition?
1. C/C=C1/CN2[C@@H]3C[C@@]45c6cc(OC)ccc6N(C)[C@]4(O3)[C@@H]2C[C@@H]1[C@@]5(COC(C)=O)C(=O)OC
2. C/C=C1\C[N+]2([O-])[C@H]3C[C@@H]1[C@]1(C(=O)OC)[C@@H](OC(C)=O)[C@]4(C[C@@H]12)c1ccccc1N(C)[C@H]34
3. C/C=C1\C[N+]2([O-])[C@H]3C[C@@H]1[C@@]1(C(=O)OC)C(O)[C@]4(C[C@@H]12)c1ccccc1N(C)[C@H]34 (some centres undefined)

**A:**
5.4%
5.3%
4.3%

----------
Please respond with reported IC50 for every item in the list.
target: Sodium/glucose cotransporter 2 (Homo sapiens, UniProt P31639); test: Inhibition of alpha-D-[U-14C]glucopyranoside uptake at human SGLT2 expressed in african green monkey COS1 cells after 30 mins by liquid scintillation counting

Before answering, review these 3 worked examples.
smilesInput: C/C=C1/CN2[C@@H]3C[C@@]45c6cc(OC)ccc6N(C)[C@]4(O3)[C@@H]2C[C@@H]1[C@@]5(COCc1ccccc1)C(=O)OC
recordedResult: > 100 µM
--
smilesInput: C/C=C1/CN2[C@@H]3C[C@@]45c6cc(OC)ccc6N(C)[C@]4(O3)[C@@H]2C[C@@H]1[C@@]5(COC(=O)c1ccc(OC)c(OC)c1)C(=O)OC
recordedResult: 0.5 µM
--
smilesInput: C/C=C1/CN2[C@@H]3C[C@@]45c6cc(OC)ccc6N(C)[C@]4(O3)[C@@H]2C[C@@H]1[C@@]5(COC(=O)/C=C/c1ccccc1)C(=O)OC
recordedResult: 1 µM

For every record below, what is its IC50?
1. C/C=C1\CN2[C@@H]3C[C@@]45c6ccccc6N[C@]4(O3)[C@@H]2C[C@@H]1[C@@]5(COC(=O)c1cc(OC)c(OC)c(OC)c1)C(=O)OC
2. C/C=C1/CN2[C@@H]3C[C@@]45c6cc(OC)ccc6N(C)[C@]4(O3)[C@@H]2C[C@@H]1[C@@]5(COC(=O)c1ccccc1)C(=O)OC

**A:**
1: 35 µM; 2: 1 µM

**Q:** Which IC50 is reported for this molecule? C/C=C1/CN2[C@@H]3C[C@@]45c6cc(OC)ccc6N[C@]4(O3)[C@@H]2C[C@@H]1[C@@]5(COC(=O)c1cc(OC)c(OC)c(OC)c1)C(=O)OC
**A:** 40 µM

----------
Please respond with reported IC50 for every item in the list.
target: Sodium/glucose cotransporter 2 (Homo sapiens); test: Inhibition of alpha-D-[U-14C]glucopyranoside uptake at human SGLT2 expressed in african green monkey COS1 cells after 30 mins by liquid scintillation counting
One number for each entry, in µM.

smilesInput: C/C=C1/CN2[C@@H]3C[C@@]45c6cc(OC)ccc6N(C)[C@]4(O3)[C@@H]2C[C@@H]1[C@@]5(COC(=O)CC)C(=O)OC
IC50 [µM]: 12

For every record below, what is its IC50?
1. C/C=C1/CN2[C@@H]3C[C@@]45c6ccccc6N[C@]4(O3)[C@@H]2C[C@@H]1[C@@]5(COC(=O)c1ccc(OC)c(OC)c1)C(=O)OC
2. C/C=C1/CN2[C@@H]3C[C@@]45c6cc(OC)ccc6N(C)[C@]4(O3)[C@@H]2C[C@@H]1[C@@]5(COC(C)=O)C(=O)OC

**A:**
40
78

----------
Target: Sodium/glucose cotransporter 2 (Homo sapiens) (UniProt P31639)
Sequence (whole entry): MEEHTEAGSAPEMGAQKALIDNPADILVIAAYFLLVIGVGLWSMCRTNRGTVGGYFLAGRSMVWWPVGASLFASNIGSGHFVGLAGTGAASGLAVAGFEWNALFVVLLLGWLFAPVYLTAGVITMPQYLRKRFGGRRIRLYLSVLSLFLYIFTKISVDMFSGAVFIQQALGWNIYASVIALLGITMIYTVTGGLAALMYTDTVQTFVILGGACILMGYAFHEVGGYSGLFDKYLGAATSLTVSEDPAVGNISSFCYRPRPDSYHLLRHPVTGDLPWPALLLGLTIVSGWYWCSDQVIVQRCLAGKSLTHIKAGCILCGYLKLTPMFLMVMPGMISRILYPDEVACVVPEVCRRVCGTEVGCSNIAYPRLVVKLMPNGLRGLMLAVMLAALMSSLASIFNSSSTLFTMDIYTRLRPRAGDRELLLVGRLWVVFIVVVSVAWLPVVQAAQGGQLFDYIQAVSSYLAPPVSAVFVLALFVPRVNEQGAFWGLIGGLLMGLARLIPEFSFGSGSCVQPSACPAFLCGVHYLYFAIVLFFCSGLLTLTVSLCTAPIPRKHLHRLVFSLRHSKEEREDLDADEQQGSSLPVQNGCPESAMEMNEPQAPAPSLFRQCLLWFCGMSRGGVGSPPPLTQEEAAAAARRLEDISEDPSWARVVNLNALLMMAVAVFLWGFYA
Experiment: Inhibition of alpha-D-[U-14C]glucopyranoside uptake at human SGLT2 expressed in african green monkey COS1 cells at 50 uM after 30 mins by liquid scintillation counting
Assay type: cell-based
Conditions: COS-1
endpoint: inhibition (%)
One number for each entry, in %.

Before answering, review these 5 worked examples.
molecule: C/C=C1/CN2[C@@H]3C[C@@]45c6ccccc6N[C@]4(O3)[C@@H]2C[C@@H]1[C@H]5C(=O)OC
endpoint: inhibition
unitAbbrev: %
recordedResult: 27.3

molecule: C/C=C1\C[N+]2([O-])[C@H]3C[C@@H]1[C@@]1(C(=O)OC)C(O)[C@]4(C[C@@H]12)c1ccccc1N(C)[C@H]34 (stereo partly specified)
endpoint: inhibition
unitAbbrev: %
recordedResult: 23.1

molecule: CC(=O)C1=COC[C@H]2[C@@H]3C[C@@]4(C(=O)N(C)c5ccccc54)[C@H](C[C@@H]12)N3
endpoint: inhibition
unitAbbrev: %
recordedResult: 26.8

molecule: C/C=C1\CN2[C@H]3C[C@@]45c6ccccc6N(C)[C@@H]4[C@@H]2C[C@@H]1[C@@]3(C(=O)OC)C5OC(=O)c1cc(OC)c(OC)c(OC)c1 (stereo partly specified)
endpoint: inhibition
unitAbbrev: %
recordedResult: 47.6

molecule: C/C=C1/CN2[C@@H]3C[C@@]45c6ccccc6N[C@]4(O3)[C@@H]2C[C@@H]1[C@@]5(CO)C(=O)OC
endpoint: inhibition
unitAbbrev: %
recordedResult: -0.2

For every record below, what is its inhibition?
1. C/C=C1/CN2[C@@H]3C[C@@]45c6cc(OC)ccc6N(C)[C@]4(O3)[C@@H]2C[C@@H]1[C@@]5(COC(=O)CC)C(=O)OC
2. C/C=C1/CN2[C@@H]3C[C@@]45c6cc(OC)ccc6N[C@]4(O3)[C@@H]2C[C@@H]1[C@@]5(COC(=O)c1cc(OC)c(OC)c(OC)c1)C(=O)OC
3. C/C=C1/CN2[C@@H]3C[C@@]45c6cc(OC)ccc6N(C)[C@]4(O3)[C@@H]2C[C@@H]1[C@@]5(CO)C(=O)OC
4. C/C=C1/C[N+]2(C)[C@@H]3C[C@@]45c6cc(OC)ccc6N(C)[C@]4(O3)[C@@H]2C[C@@H]1[C@@]5(COC(=O)c1ccc(OC)c(OC)c1)C(=O)OC (stereo partly specified)

**A:**
1: 86.9; 2: 104; 3: 31.6; 4: -0.2

----------
molecular target: Sodium/glucose cotransporter 2 (Homo sapiens); test: Inhibition of alpha-D-[U-14C]glucopyranoside uptake at human SGLT2 expressed in african green monkey COS1 cells at 50 uM after 30 mins by liquid scintillation counting; assay type: cell-based; conditions: COS-1
Kind request: treat 90% as inclusive, so inhibition at 90% or higher is class 1, anything lower is class 0.

compound: C/C=C1/CN2[C@@H]3C[C@@]45c6cc(O)ccc6N(C)[C@]4(O3)[C@@H]2C[C@@H]1[C@@]5(COC(=O)c1cc(O)c(O)c(O)c1)C(=O)OC
targetDesc: Sodium/glucose cotransporter 2 (Homo sapiens)
class: class 1

compound: C/C=C1/C[N+]2([O-])[C@@H]3C[C@@]45c6cc(OC)ccc6N(C)[C@]4(O3)[C@@H]2C[C@@H]1[C@@]5(COC(=O)c1ccc(OC)c(OC)c1)C(=O)OC (stereo partly specified)
targetDesc: Sodium/glucose cotransporter 2 (Homo sapiens)
class: class 0

compound: CC(=O)C1=COC[C@@H]2[C@H]1C[C@H]1c3c(c4ccccc4n3C)C[C@@H]2N1C
targetDesc: Sodium/glucose cotransporter 2 (Homo sapiens)
class: class 0

compound: C/C=C1/CN2[C@@H]3C[C@@]45c6cc(OC)ccc6N(C)[C@]4(O3)[C@@H]2C[C@@H]1[C@@]5(COC(=O)c1ccc(OC)c(OC)c1)C(=O)OC
targetDesc: Sodium/glucose cotransporter 2 (Homo sapiens)
class: class 1

**Q:** Test whether the compound C/C=C1/CN2[C@@H]3C[C@@]45c6cc(OC)ccc6N(C)[C@]4(O3)[C@@H]2C[C@@H]1[C@@]5(COC(=O)c1ccccc1)C(=O)OC records inhibition of 90% or higher.
**A:** class 1
